System: Human immunodeficiency virus 1
EXPERIMENT SUMMARY: In vitro inhibition of HIV-1 BAL strain infection of HeLa cell line.
Format: functional
MEASUREMENT SETUP: Human immunodeficiency virus 1, HeLa
PROPERTY NAME: IC90

{"ENTRY SMILES": "O=C(OCc1ccccc1)[C@@H](C1CCCCC1)N1C[C@H](CN2CCC(O)(CCCc3ccccc3)CC2)[C@@H](c2ccccc2)C1", "VALUE": "> 300 nM"}
{"ENTRY SMILES": "O=C(O)[C@H](C1CCCCC1)N1C[C@H](CN2CCC(O)(CCCc3ccccc3)CC2)[C@@H](c2ccccc2)C1", "VALUE": "> 300 nM"}
{"ENTRY SMILES": "O=C(OCc1ccccc1)[C@H](C1CCCCC1)N1C[C@H](CN2CCC(O)(CCCc3ccccc3)CC2)[C@@H](c2ccccc2)C1", "VALUE": "> 300 nM"}

Per the records, this compound ( `CC(C)[C@H](C(=O)O)N1C[C@H](CN2CCC(c3ccc(F)cc3)CC2)[C@@H](c2ccccc2)C1` ) has IC90 equal to > 100 nM
